# Tested on: KB
# testProtocol: Cytotoxicity against human KB cells after 72 hrs by MTT assay
# Format: functional, cell-based
Please respond with reported IC50 for every item in the list.

Data request: What does the record list as IC50 for C#CCn1cc(C(=O)NC(CC(=O)NC2CCCC2)c2ccccc2)c(=O)c2ccc(Cl)nc21 (stereo not given) ?
Data returned: > 10 µM

Data request: What does the record list as IC50 for C#CCn1cc(C(=O)NC(C(=O)Nc2ccccc2)c2ccccc2)c(=O)c2cc(F)c(Cl)nc21 (stereo not given) ?
Data returned: 1.1 µM

Data request: What does the record list as IC50 for C#CCn1cc(C(=O)NC(CC(=O)Nc2ccccn2)c2ccccc2)c(=O)c2ccc(Cl)nc21 (stereo not given) ?
Data returned: 5.2 µM

Data request: What does the record list as IC50 for C#CCn1cc(C(=O)NC(C(=O)NC2CCCCC2)c2ccccc2)c(=O)c2cc(F)c(Cl)nc21 (stereo not given) ?
Data returned: > 10 µM

Data request: What does the record list as IC50 for C#CCn1cc(C(=O)NC(CC(=O)Nc2ccccc2)c2ccccc2)c(=O)c2cccnc21 (stereo not given) ?
Data returned: > 10 µM

* * *

# System: HBL-100
# testProtocol: Cytotoxicity against human HBL100 cells after 72 hrs by MTT assay
# Assay type: functional, cell-based
# runConditions: HBL-100, 72 h
pIC50: −log10 of the molar value.
Please respond with reported pIC50 for every item in the list.

Data request: What does the record list as pIC50 for C#CCn1cc(C(=O)NC(C(=O)NC2CCCC2)c2ccccc2)c(=O)c2cccnc21 (centres undefined) ?
Data returned: < 5.00

Data request: What does the record list as pIC50 for C#CCn1cc(C(=O)NC(CC(=O)Nc2ccccn2)c2ccccc2)c(=O)c2cc(F)c(Cl)nc21 (centres undefined) ?
Data returned: < 5.00

Data request: What does the record list as pIC50 for C#CCn1cc(C(=O)NC(CC(=O)NC2CCCCC2)c2ccccc2)c(=O)c2cc(F)c(Cl)nc21 (centres undefined) ?
Data returned: < 5.00

Data request: What does the record list as pIC50 for COc1cccc2c1C(=O)c1c(O)c3c(c(O)c1C2=O)C[C@@](O)(C(=O)CO)C[C@@H]3O[C@H]1C[C@H](N)[C@H](O)[C@H](C)O1 ?
Data returned: 6.62

Data request: What does the record list as pIC50 for C#CCn1cc(C(=O)NC(C(=O)Nc2ccccc2)c2ccccc2)c(=O)c2cc(F)c(Cl)nc21 (centres undefined) ?
Data returned: < 5.00

Data request: What does the record list as pIC50 for C#CCn1cc(C(=O)NC(CC(=O)NC2CCCC2)c2ccccc2)c(=O)c2ccc(Cl)nc21 (centres undefined) ?
Data returned: 5.49

Data request: What does the record list as pIC50 for C#CCn1cc(C(=O)NC(C(=O)Nc2ccccc2)c2ccccc2)c(=O)c2cccnc21 (centres undefined) ?
Data returned: < 5.00

Data request: What does the record list as pIC50 for C#CCn1cc(C(=O)NC(CC(=O)Nc2ccccc2)c2ccccc2)c(=O)c2ccc(Cl)nc21 (centres undefined) ?
Data returned: 5.40

Data request: What does the record list as pIC50 for C#CCn1cc(C(=O)NC(C(=O)NC2CCCCC2)c2ccccc2)c(=O)c2cc(F)c(Cl)nc21 (centres undefined) ?
Data returned: < 5.00

* * *

Please respond with reported IC50 for every item in the list.
# Tested on: SW-620
# testProtocol: Cytotoxicity against human SW620 cells after 72 hrs by MTT assay
# Assay type: functional, cell-based
# runConditions: SW-620, 72 h

Data request: What does the record list as IC50 for C#CCn1cc(C(=O)NC(C(=O)Nc2ccccc2)c2ccccc2)c(=O)c2ccc(Cl)nc21 (stereo unspecified) ?
Data returned: 2200 nM

Data request: What does the record list as IC50 for C#CCn1cc(C(=O)NC(CC(=O)Nc2ccccc2)c2ccccc2)c(=O)c2cccnc21 (stereo unspecified) ?
Data returned: > 10000 nM

Data request: What does the record list as IC50 for C#CCn1cc(C(=O)NC(CC(=O)NC2CCCC2)c2ccccc2)c(=O)c2ccc(Cl)nc21 (stereo unspecified) ?
Data returned: 2700 nM

Data request: What does the record list as IC50 for C#CCn1cc(C(=O)NC(C(=O)Nc2ccccc2)c2ccccc2)c(=O)c2cccnc21 (stereo unspecified) ?
Data returned: > 10000 nM

Data request: What does the record list as IC50 for C#CCn1cc(C(=O)NC(CC(=O)Nc2ccccc2)c2ccccc2)c(=O)c2cc(F)c(Cl)nc21 (stereo unspecified) ?
Data returned: 5700 nM

Data request: What does the record list as IC50 for COc1cccc2c1C(=O)c1c(O)c3c(c(O)c1C2=O)C[C@@](O)(C(=O)CO)C[C@@H]3O[C@H]1C[C@H](N)[C@H](O)[C@H](C)O1 [DOXORUBICIN] ?
Data returned: 80 nM

* * *

Please respond with reported pIC50 for every item in the list.
# Tested on: SW-620
# testProtocol: Cytotoxicity against human SW620 cells after 72 hrs by MTT assay
# Type: functional, cell-based
# runConditions: SW-620, 72 h
API: returns pIC50 as number; meaning -log10 of concentration in mol/L.

Data request: For SW-620, provide pIC50 of C#CCn1cc(C(=O)NC(CC(=O)NC2CCCC2)c2ccccc2)c(=O)c2cc(F)c(Cl)nc21 (centres undefined) please.
Data returned: 5.68

Data request: For SW-620, provide pIC50 of C#CCn1cc(C(=O)NC(CC(=O)Nc2ccccn2)c2ccccc2)c(=O)c2ccc(Cl)nc21 (centres undefined) please.
Data returned: 5.54

Data request: For SW-620, provide pIC50 of C#CCn1cc(C(=O)NC(C(=O)NC2CCCC2)c2ccccc2)c(=O)c2cc(F)c(Cl)nc21 (centres undefined) please.
Data returned: 5.47

Data request: For SW-620, provide pIC50 of C#CCn1cc(C(=O)NC(C(=O)Nc2ccccc2)c2ccccc2)c(=O)c2cc(F)c(Cl)nc21 (centres undefined) please.
Data returned: 5.85

Data request: For SW-620, provide pIC50 of C#CCn1cc(C(=O)NC(CC(=O)Nc2ccccc2)c2ccccc2)c(=O)c2ccc(Cl)nc21 (centres undefined) please.
Data returned: 5.54

Data request: For SW-620, provide pIC50 of C#CCn1cc(C(=O)NC(CC(=O)Nc2ccccn2)c2ccccc2)c(=O)c2cc(F)c(Cl)nc21 (centres undefined) please.
Data returned: 5.64

* * *

# testProtocol: Cytotoxicity against mouse NIH/3T3 cells after 72 hrs by MTT assay
# Type: cell-based, NIH3T3
# runConditions: Mus musculus, NIH3T3, 72 h; read-out: IC50
Label Met when IC50 < 4 µM; otherwise Not met.

Data request: Hi there! Is IC50 for C#CCn1cc(C(=O)NC(C(=O)NC2CCCC2)c2ccccc2)c(=O)c2cc(F)c(Cl)nc21 (stereo not drawn) below 4 µM, do you know?
Data returned: Met

Data request: Hi there! Is IC50 for C#CCn1cc(C(=O)NC(CC(=O)Nc2ccccc2)c2ccccc2)c(=O)c2cc(F)c(Cl)nc21 (stereo not drawn) below 4 µM, do you know?
Data returned: Not met

Data request: Hi there! Is IC50 for C#CCn1cc(C(=O)NC(C(=O)NC2CCCCC2)c2ccccc2)c(=O)c2cc(F)c(Cl)nc21 (stereo not drawn) below 4 µM, do you know?
Data returned: Not met

Data request: Hi there! Is IC50 for C#CCn1cc(C(=O)NC(CC(=O)Nc2ccccn2)c2ccccc2)c(=O)c2cc(F)c(Cl)nc21 (stereo not drawn) below 4 µM, do you know?
Data returned: Not met

Data request: Hi there! Is IC50 for C#CCn1cc(C(=O)NC(CC(=O)NC2CCCC2)c2ccccc2)c(=O)c2cc(F)c(Cl)nc21 (stereo not drawn) below 4 µM, do you know?
Data returned: Met

Data request: Hi there! Is IC50 for C#CCn1cc(C(=O)NC(CC(=O)NC2CCCC2)c2ccccc2)c(=O)c2ccc(Cl)nc21 (stereo not drawn) below 4 µM, do you know?
Data returned: Not met

Data request: Hi there! Is IC50 for COc1cccc2c1C(=O)c1c(O)c3c(c(O)c1C2=O)C[C@@](O)(C(=O)CO)C[C@@H]3O[C@H]1C[C@H](N)[C@H](O)[C@H](C)O1 [DOXORUBICIN] below 4 µM, do you know?
Data returned: Met

Data request: Hi there! Is IC50 for C#CCn1cc(C(=O)NC(CC(=O)Nc2ccccc2)c2ccccc2)c(=O)c2ccc(Cl)nc21 (stereo not drawn) below 4 µM, do you know?
Data returned: Not met

* * *

# Tested on: KB
# testProtocol: Cytotoxicity against human KB cells after 72 hrs by MTT assay
# Assay type: functional, cell-based
quantityMeasured: IC50 (µM)
Please give a number only; it is taken to be in µM.

Data request: What does the record list as IC50 for C#CCn1cc(C(=O)NC(C(=O)Nc2ccccc2)c2ccccc2)c(=O)c2cccnc21 (centres undefined) ?
Data returned: 3

Data request: What does the record list as IC50 for C#CCn1cc(C(=O)NC(CC(=O)NC2CCCC2)c2ccccc2)c(=O)c2cc(F)c(Cl)nc21 (centres undefined) ?
Data returned: 4.9

Data request: What does the record list as IC50 for C#CCn1cc(C(=O)NC(C(=O)NC2CCCC2)c2ccccc2)c(=O)c2cccnc21 (centres undefined) ?
Data returned: 4.5

Data request: What does the record list as IC50 for C#CCn1cc(C(=O)NC(C(=O)NC2CCCC2)c2ccccc2)c(=O)c2cc(F)c(Cl)nc21 (centres undefined) ?
Data returned: 3.5

Data request: What does the record list as IC50 for C#CCn1cc(C(=O)NC(CC(=O)Nc2ccccn2)c2ccccc2)c(=O)c2cc(F)c(Cl)nc21 (centres undefined) ?
Data returned: 2.3

Data request: What does the record list as IC50 for C#CCn1cc(C(=O)NC(C(=O)Nc2ccccc2)c2ccccc2)c(=O)c2ccc(Cl)nc21 (centres undefined) ?
Data returned: 2.1
